Test system: PmTbr T-box DNA-binding domain (GST fusion);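 also: 200 nM protein in PBS on universal arrays averaged over duplicate arrays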
Sequence: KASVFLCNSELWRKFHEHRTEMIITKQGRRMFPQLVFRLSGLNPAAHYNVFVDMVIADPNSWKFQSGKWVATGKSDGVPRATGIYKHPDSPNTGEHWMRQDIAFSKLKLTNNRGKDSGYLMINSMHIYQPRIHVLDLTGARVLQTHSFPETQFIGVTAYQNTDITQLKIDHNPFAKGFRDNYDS
Test: PBM E-score of 8-mer (E-score (dimensionless, -0.5 to 0.5)); higher = stronger binding preference
Conditions: the construct has about 5 more residues each side
Whole data set: some 33,000 sequences, median “E-score (dimensionless, -0.5 to 0.5)” near -0.049, cut for the highest 2% near 0.37. The sample holds the highest values, similar sequences and a random draw of the others, so the mix is not that of the screen.
Consider the following sequences; for each one, report its PBM E-score of 8-mer.
Answers are plain numbers.

The examples below pair each entry with its known result.
{"columns": ["seqText", "valueReported"],
 "data": [
  ["GTCAAACA", -0.0272],
  ["CTGTCGGA", 0.101],
  ["AGGTGCTG", 0.414],
  ["TGACCTAA", -0.228],
  ["AAACCTAA", -0.0751],
  ["GCACCCGC", 0.333],
  ["AAGTGCGG", 0.247],
  ["ATGTCGCA", 0.254]
]}

Lab note: each sequence below needs its PBM E-score of 8-mer filled in.
1. CCACCTAG
2. CCTGTCAA
3. AGGTGCTC
4. CTTTGGCA

Result:
1. 0.264
2. 0.309
3. 0.0655
4. 0.288

Kindly give each listed record's PBM E-score of 8-mer.
1. AAGCGCGC
2. ATCGCGAG

Result:
0.106
0.249

Dear colleague, could you send me PBM E-score of 8-mer for each of the items below? Thanks.
1. GTTGCTCA
2. TCACCTAA
3. ATGTGACA
4. CACATCAG
5. ATGTGTCC
6. CGTTGGTA
7. GCGTGACA
8. AGACCTAT

Result:
1. 0.0245
2. 0.383
3. 0.439
4. 0.162
5. 0.0956
6. -0.0221
7. 0.365
8. -0.214

# batch: return PBM E-score of 8-mer for each of the 7 sequences below
1. CGGCAATA
2. ACACCTAT
3. CTTAAGGC
4. CATAACAC
5. ACGAAGCT
6. ACGCGTTC
7. GAAATTAA

Result:
[-0.0175, 0.466, -0.0813, 0.42, -0.143, 0.138, -0.113]

----------
Tested on: PmTbr T-box DNA-binding domain (GST fusion);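 also: 200 nM protein in PBS on universal arrays averaged over duplicate arrays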
Sequence: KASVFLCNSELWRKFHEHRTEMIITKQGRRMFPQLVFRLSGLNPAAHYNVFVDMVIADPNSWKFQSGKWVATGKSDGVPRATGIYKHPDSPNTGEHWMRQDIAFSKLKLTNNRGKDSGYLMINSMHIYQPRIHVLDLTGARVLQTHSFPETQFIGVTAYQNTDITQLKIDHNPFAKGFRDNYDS
Experiment: PBM E-score of 8-mer (E-score (dimensionless, -0.5 to 0.5)); Tbr is Tbrain of the sea star Patiria miniata (Pm) or the sea urchin Strongylocentrotus purpuratus (Sp); higher = stronger binding preference
Conditions: target sequence: T-box / the construct has about 5 more residues each side
The full ranking holds about 33,000 sequences; the median of “E-score (dimensionless, -0.5 to 0.5)” is about -0.049, and the highest 2% start at about 0.37. Many of the other results were omitted from the sample, so the highest values are more common in it than they were.
Would you mind sorting the entries by PBM E-score of 8-mer according to these classes? lo = under 0.02, mid = from 0.02 up to 0.2, hi = 0.2 and over

Worked examples follow.
{"columns": ["seqText", "answerLabel"],
 "data": [
  ["CGTTAACC", "mid"],
  ["TACTTAAA", "lo"]
]}

Task: Record `CTTGACCC` — which class?
Result: lo

Task: Note, next up: `ATTGACAA`
Result: hi

Task: # iterate: `GGTGACCA`
Result: mid

Task: Next: `AGTGACAA`
Result: hi

Task: Also check `AAATAGGG`
Result: lo

Task: Field entry: `AGTAGAGC`
Result: lo

Task: Also check `GGTGACGA`
Result: hi

From: the supplement of paper PMC4166925
